Assay: Pharmacokinetics (biodistribution 1-24 h) in non-tumor bearing mice
Format: in vivo
Settings: female, BALB/c, mouse, kidneys, 200 umol, total radioactivity; 4 hours after injection, ^61Cu; read-out: Biodistribution Kidneys
Procedure: The biodistribution at the investigate time points was performed as described in the Example 9. The data were combined with the results obtained from the groups of xenografts at 1 hour and 4 hours p.i., as the biodistribution in nude mice was the same as in the healthy mice. The results were expressed as described in the Example 10.
attribute-measured: tissue uptake at 4 h (%ID/g)
Write down the numeric answer in %ID/g and omit the unit.

[in] Which tissue uptake at 4 h value belongs to C[C@@H](O)[C@@H]1NC(=O)[C@H](CCCCN)NC(=O)[C@@H](Cc2c[nH]c3ccccc23)NC(=O)[C@H](Cc2ccc(O)cc2)NC(=O)[C@@H](NC(=O)[C@@H](Cc2ccccc2)NC(=O)CCC(C(=O)O)N2CCN(CC(=O)O)CCN(CC(=O)O)CC2)CSSC[C@@H](C(=O)N[C@H](CO)[C@@H](C)O)NC1=O (single isomer, unassigned) [[^61/^64Cu]Cu-NODAGA-TOC, metal not drawn] ?
[out] 7.64
